# Tested on: LNCaP tumor-transplanted mouse
# PROTOCOL_SUMMARY: Internal radioactivity distribution using LNCaP tumor-transplanted mouse
# Assay type: in vivo
# MEASUREMENT_CONDITIONS: 24 h after administration
OBSERVABLE: Stomach (% ID)

O=C([O-])CN(Cc1cccc(C(=O)[O-])n1)C[C@H](Cc1ccc(NC(=O)[C@H](CCCCNC(=O)CCC(=O)NCCCC[C@H](NC(=O)N[C@@H](CCC(=O)O)C(=O)O)C(=O)O)NC(=O)COCCOCCOCC(=O)N[C@@H](CCCCNC(=O)CCCc2ccc(I)cc2)C(=O)O)cc1)N(CC(=O)[O-])Cc1cccc(C(=O)[O-])n1.[111In+3] [[^111In]In-Octapa-3]; 0.25
O=C([O-])CN(CCN(CCc1ccc(NC(=O)[C@H](CCCCNC(=O)CCC(=O)NCCCC[C@H](NC(=O)N[C@@H](CCC(=O)O)C(=O)O)C(=O)O)NC(=O)CCCc2ccc(I)cc2)cc1)CCN(CC(=O)[O-])Cc1cccc(C(=O)[O-])n1)Cc1cccc(C(=O)[O-])n1.[111In+3] [[^111In]In-Neunpa-2]; 0.13
O=C(O)CC[C@H](NC(=O)N[C@@H](CCCCNC(=O)[C@H](Cc1ccc2ccccc2c1)NC(=O)[C@H]1CC[C@H](CNC(=O)CCC(C(=O)O)N2CCN(CC(=O)O)CCN(C(CCC(=O)N[C@@H](CCCCNC(=O)CCCc3ccc(I)cc3)C(=O)O)C(=O)O)CCN(CC(=O)O)CC2)CC1)C(=O)O)C(=O)O (some centres unmarked) [[^111In]In-PSMA-NAT-DA1, metal not drawn]; 0.28
O=C([O-])CN(Cc1cccc(C(=O)[O-])n1)C[C@H](Cc1ccc(NC(=O)CCCCCNC(=O)CCC(=O)NCCCC[C@H](NC(=O)N[C@@H](CCC(=O)O)C(=O)O)C(=O)O)cc1)N(CC(=O)[O-])Cc1cccc(C(=O)[O-])n1.[111In+3] [[^111In]In-Octapa-1, reference compound]; 0.03
O=C([O-])CN(Cc1cccc(C(=O)[O-])n1)C[C@H](Cc1ccc(NC(=O)[C@H](CCCCNC(=O)CCC(=O)NCCCC[C@H](NC(=O)N[C@@H](CCC(=O)O)C(=O)O)C(=O)O)NC(=O)CCCc2ccc(I)cc2)cc1)N(CC(=O)[O-])Cc1cccc(C(=O)[O-])n1.[111In+3] [[^111In]In-Octapa-2]; 0.21
